Here, each record is paired with measured cAMP production activity (%) data.
- system name: human PTH1 receptor (Homo sapiens, UniProt Q03431)
- Sequence (Q03431 27-593): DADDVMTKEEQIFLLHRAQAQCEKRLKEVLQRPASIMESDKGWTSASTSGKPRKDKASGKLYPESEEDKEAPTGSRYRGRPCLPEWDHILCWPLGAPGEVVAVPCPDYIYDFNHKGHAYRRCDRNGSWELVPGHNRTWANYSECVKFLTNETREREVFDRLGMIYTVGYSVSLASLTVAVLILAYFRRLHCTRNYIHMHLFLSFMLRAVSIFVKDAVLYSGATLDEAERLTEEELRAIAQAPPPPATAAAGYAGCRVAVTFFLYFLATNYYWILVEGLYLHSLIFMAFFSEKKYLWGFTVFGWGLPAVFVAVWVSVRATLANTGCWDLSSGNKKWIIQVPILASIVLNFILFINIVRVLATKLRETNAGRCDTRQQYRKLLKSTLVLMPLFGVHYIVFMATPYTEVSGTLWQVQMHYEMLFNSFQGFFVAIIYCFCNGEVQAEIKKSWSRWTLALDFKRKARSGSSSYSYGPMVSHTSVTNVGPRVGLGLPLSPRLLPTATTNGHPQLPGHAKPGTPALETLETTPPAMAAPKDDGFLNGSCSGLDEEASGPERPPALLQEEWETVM
- protocol text: In vitro cAMP signal activity in HKRK-B7 cells (LLC-PK1 cells overexpressing the human PTH1 receptor)
- Assay type: cell-based
- applied conditions: HKRK-B7 cells; compound at 1×10^−3 M; cAMP produced as percentage of that produced by hPTH(1-34) at 100 nM

{"molecule": "Cc1cc(N(C)C(=O)CO)ccc1/C=C/S(=O)(=O)N1CCC2(CC1)N=C(c1cccc(OC(F)(F)F)c1)NC2=O", "cAMP production activity (%)": 96}
{"molecule": "CCCCCc1ccc(C2=NC3(CCN(S(=O)(=O)CCc4c(C)cc(N(C)C(N)=O)cc4C)CC3)C(=O)N2)cc1OC", "cAMP production activity (%)": 128}
{"molecule": "CC1(C)OCC(Cn2ccc3c(/C=C/S(=O)(=O)N4CCC5(CC4)N=C(C4CCOCC4)NC5=O)cccc32)O1 (stereo not shown)", "cAMP production activity (%)": 39}
{"molecule": "Cc1cc(C(=O)N2CCC(C)(O)CC2)cc(C)c1/C=C/S(=O)(=O)N1CCC2(CC1)N=C(C1CCC(C)CC1)NC2=O (stereo not shown)", "cAMP production activity (%)": 61}
{"molecule": "Cc1cc(N2COCC2=O)ccc1CCS(=O)(=O)N1CCC2(CC1)N=C(C1CCC(C)CC1)NC2=O (stereo not shown)", "cAMP production activity (%)": 47}
{"molecule": "Cc1cc(C(=O)N2CCNC(=O)C2)cc(C)c1/C=C/S(=O)(=O)N1CCC2(CC1)N=C(c1ccc(F)c(C(F)(F)F)c1)NC2=O", "cAMP production activity (%)": 69}
{"molecule": "Cc1cc2ccc1CCS(=O)(=O)N1CCC3(CC1)N=C(NC3=O)c1cc(cc(C(F)(F)F)c1)OCCCCCNC(=O)CN(C)C2=O", "cAMP production activity (%)": 18}
